# ASSAY SYSTEM: SMARCA2 (Homo sapiens)
# Construct: endogenous in cells; host or cells: HT1080 (CRISPR HiBiT knock-in clone, generated in house)
# Sequence (P51531 whole entry): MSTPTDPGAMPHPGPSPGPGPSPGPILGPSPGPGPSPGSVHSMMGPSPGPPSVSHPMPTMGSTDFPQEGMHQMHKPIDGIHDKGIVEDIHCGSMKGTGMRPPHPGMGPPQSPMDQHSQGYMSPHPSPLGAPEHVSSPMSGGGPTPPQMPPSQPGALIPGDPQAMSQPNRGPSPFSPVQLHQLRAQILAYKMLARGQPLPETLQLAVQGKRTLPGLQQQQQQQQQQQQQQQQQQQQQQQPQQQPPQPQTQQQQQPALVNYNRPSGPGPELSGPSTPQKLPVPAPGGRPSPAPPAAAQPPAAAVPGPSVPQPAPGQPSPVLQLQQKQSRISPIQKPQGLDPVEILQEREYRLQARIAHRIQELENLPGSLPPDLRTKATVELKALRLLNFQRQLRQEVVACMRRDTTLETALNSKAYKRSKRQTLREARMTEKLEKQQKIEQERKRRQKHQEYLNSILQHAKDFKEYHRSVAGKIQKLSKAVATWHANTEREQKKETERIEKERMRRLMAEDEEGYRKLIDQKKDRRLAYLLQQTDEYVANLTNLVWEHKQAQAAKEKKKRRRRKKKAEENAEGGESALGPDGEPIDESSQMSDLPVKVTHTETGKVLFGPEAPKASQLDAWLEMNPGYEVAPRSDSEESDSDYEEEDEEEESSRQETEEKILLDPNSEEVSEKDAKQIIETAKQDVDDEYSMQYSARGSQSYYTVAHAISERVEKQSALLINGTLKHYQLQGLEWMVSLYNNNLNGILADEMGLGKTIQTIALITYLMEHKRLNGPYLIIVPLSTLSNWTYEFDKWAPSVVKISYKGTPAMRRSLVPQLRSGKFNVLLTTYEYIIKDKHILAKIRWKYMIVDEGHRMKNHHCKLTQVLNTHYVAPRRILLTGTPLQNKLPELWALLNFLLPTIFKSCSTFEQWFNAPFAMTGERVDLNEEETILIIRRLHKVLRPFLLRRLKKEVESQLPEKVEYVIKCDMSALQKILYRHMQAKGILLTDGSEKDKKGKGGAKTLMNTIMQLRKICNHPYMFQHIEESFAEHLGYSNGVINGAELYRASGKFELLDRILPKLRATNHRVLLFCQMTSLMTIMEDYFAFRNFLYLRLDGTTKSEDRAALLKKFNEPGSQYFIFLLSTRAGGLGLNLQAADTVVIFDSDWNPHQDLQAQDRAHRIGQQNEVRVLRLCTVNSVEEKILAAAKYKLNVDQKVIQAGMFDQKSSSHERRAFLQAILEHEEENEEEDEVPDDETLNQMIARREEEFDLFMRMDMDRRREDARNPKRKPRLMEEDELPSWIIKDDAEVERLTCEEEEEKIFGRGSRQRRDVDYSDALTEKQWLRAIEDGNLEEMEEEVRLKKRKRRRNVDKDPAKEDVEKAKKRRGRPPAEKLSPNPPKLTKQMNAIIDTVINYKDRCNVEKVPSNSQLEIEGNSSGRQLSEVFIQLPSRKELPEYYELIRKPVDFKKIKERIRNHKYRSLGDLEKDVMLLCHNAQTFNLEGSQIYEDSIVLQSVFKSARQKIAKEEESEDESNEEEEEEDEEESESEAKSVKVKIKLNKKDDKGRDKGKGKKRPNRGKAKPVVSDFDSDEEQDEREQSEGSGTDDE
# TEST: SMARCA2 HiBiT degradation assay (cellular)
# Format: cell-based
# CONDITION DESCRIPTION: A549, 6 h incubation; Emax = amount of residual protein remaining in the cell following compound treatment; table head names A549
// values below are reported Emax
Just the number please, in %, no unit attached.

COMPOUND	Emax (%)
Nc1nnc(-c2ccccc2O)cc1N1CCN(c2cccc(CN3CCN(C(=O)COc4ccc5c(c4)C(=O)N(C4CCC(=O)NC4=O)C5=O)CC3)c2)C2(CC2)C1 (centres unmarked) [Example 129]	38
Nc1nnc(-c2ccccc2O)cc1O[C@H]1CCCN(c2ccc(N3CCN(CC4CCN(C(=O)CCCCn5cc(COc6cccc7c6C(=O)N(C6CCC(=O)NC6=O)C7=O)nn5)CC4)CC3)cc2)C1 (mixture of isomers) [Example 140]	42
Nc1nnc(-c2ccccc2O)cc1N1CCC(NC(=O)CCCN2CCC(c3ccc(NC4CCC(=O)NC4=O)cc3)CC2)(c2ccccc2)CC1 (centres unmarked) [Example 91]	46
Nc1nnc(-c2ccccc2O)cc1N1CC2CCC(C1)N2c1cccc(CN2CCC(C(=O)N3CCC(c4ccc(OC5CCC(=O)NC5=O)cc4)CC3)CC2)c1 (racemic) [Example 92]	41
Nc1nnc(-c2ccccc2O)cc1N1CCC(C(=O)N2CCC3(CC2)CN(C(=O)C2CCN(c4ccc5c(c4)C(=O)N(C4CCC(=O)NC4=O)C5=O)CC2)CCO3)(c2ccccc2)CC1 (centres unmarked) [Example 167]	43

[Q] State the recorded Emax for this entry: Nc1nnc(-c2ccccc2O)cc1N1CC(Oc2cccc(CN3CCN(C(=O)CCCCCCCCCNc4cccc5c4C(=O)N(C4CCC(=O)NC4=O)C5=O)CC3)c2)C1 (centres unmarked) [Example 32]
[A] 62

[Q] Recorded Emax of Nc1nnc(-c2ccccc2O)cc1OCC(CNC(=O)CN1CCC(c2ccc(OC3CCC(=O)NC3=O)cc2)CC1)c1ccccc1 (racemic) [Example 98] , please.
[A] 63

[Q] What does the data say about its Emax? Entry: Nc1nnc(-c2ccccc2O)cc1N1CCC(C(=O)N2CCC3(CC2)CN(C(=O)CCCN2CCC(c4ccc(OC5CCC(=O)NC5=O)cc4)CC2)CCO3)(c2ccccc2)CC1 (centres unmarked) [Example 181]
[A] 56

[Q] Report Emax for Nc1nnc(-c2ccccc2O)cc1N1CC2CCC(C1)N2c1cccc(OCCN2CCN(C(=O)CCCCCCCCNc3cccc4c3C(=O)N(C3CCC(=O)NC3=O)C4=O)CC2)c1 (centres unmarked) [Example 6] please.
[A] 58

[Q] Give its Emax value. Item: Nc1nnc(-c2ccccc2O)cc1N1CC2CCC(C1)N2c1cccc(CN2CCN(C(=O)CCC3CCN(c4ccc5c(c4)C(=O)N(C4CCC(=O)NC4=O)C5=O)CC3)CC2)c1 (racemic) [Example 47]
[A] 42

[Q] What measured Emax goes with Nc1nnc(-c2ccccc2O)cc1N1CC2CCC(C1)N2c1cccc(OCCN2CCN(C(=O)CCCCCCNc3cccc4c3C(=O)N(C3CCC(=O)NC3=O)C4=O)CC2)c1 (centres unmarked) [Example 1] ?
[A] 55

---

# ASSAY SYSTEM: SMARCA2 (Homo sapiens)
# Construct: endogenous in cells; host or cells: HT1080 (CRISPR HiBiT knock-in clone, generated in house)
# TEST: SMARCA2 HiBiT degradation assay (cellular)
# Format: cell-based
# CONDITION DESCRIPTION: A549, 6 h incubation; Emax = amount of residual protein remaining in the cell following compound treatment; table head names A549
MEASURED METRIC: Emax (%)
State the answer as a number, implicitly in %.

As a guide, the following entries are already answered.
MOLECULE	Emax (%)
Nc1nnc(-c2ccccc2O)cc1N1CC2CCC(C1)N2c1cccc(OCCN2CCN(C(=O)N3CCC(Oc4ccc5c(c4)C(=O)N(C4CCC(=O)NC4=O)C5=O)CC3)CC2)c1 (racemic) [Example 40]	32
Nc1nnc(-c2ccccc2O)cc1N1CC2CCC(C1)N2c1cccc(OCCN2CCN(C(=O)CC3CCN(c4cccc5c4C(=O)N(C4CCC(=O)NC4=O)C5=O)CC3)CC2)c1 (racemic) [Example 15]	52
Nc1nnc(-c2ccccc2O)cc1N1CC2CCC(C1)N2c1cc(F)cc(CN2CCN(C(=O)C3CCN(c4ccc5c(c4)C(=O)N(C4CCC(=O)NC4=O)C5=O)CC3)CC2)c1 (racemic) [Example 193]	25
Nc1nnc(-c2ccccc2O)cc1N1CCC2(CC1)CN(c1cccc(OCCN3CCN(C(=O)C4CCN(c5ccc6c(c5)C(=O)N(C5CCC(=O)NC5=O)C6=O)CC4)CC3)c1)CCO2 (centres unmarked) [Example 83]	59

[Q] What does the data say about its Emax? Entry: Nc1nnc(-c2cc(F)ccc2O)cc1N1C2CCC1CN(c1cccc(OCCN3CCN(CC4CCN(c5ccc6c(c5)C(=O)N(C5CCC(=O)NC5=O)C6=O)CC4)CC3)c1)C2 (centres unmarked) [Example 57]
[A] 67

---

# ASSAY SYSTEM: SMARCA2 (Homo sapiens)
# Construct: endogenous in cells; host or cells: HT1080 (CRISPR HiBiT knock-in clone, generated in house)
# TEST: SMARCA2 HiBiT degradation assay (cellular)
# Format: cell-based
# CONDITION DESCRIPTION: 6 h incubation; HiBiT-tagged SMARCA2, luminescence read-out; table head names A549; read-out: HiBit A549 SMARCA2 IP (nM) 6 h
The reader will find reported DC50 values listed item by item below.
I only need the number, in nM, no unit after it.

Some solved cases for reference:
COMPOUND	OBSERVED RESULT
Nc1nnc(-c2ccccc2O)cc1N1CC(Oc2cccc(CN3CCN(C(=O)CCCCCCCCCNc4cccc5c4C(=O)N(C4CCC(=O)NC4=O)C5=O)CC3)c2)C1 (centres unmarked)	281
Nc1nnc(-c2ccccc2O)cc1OC1CCCN(c2ccc(N3CCN(C(=O)CCCCCCCCCCCn4cc(CNc5cccc6c5C(=O)N(C5CCC(=O)NC5=O)C6=O)nn4)CC3)cc2)C1 (centres unmarked)	149
Nc1nnc(-c2ccccc2O)cc1N1CCC(CNC(=O)C2CCN(c3ccc4c(c3)C(=O)N(C3CCC(=O)NC3=O)C4=O)CC2)(c2ccccc2)CC1 (centres unmarked)	70
Nc1nnc(-c2ccccc2O)cc1N1CC2CCC(C1)N2c1cccc(OCCN2CCN(C(=O)CCNC(=O)C3CCN(c4ccc5c(c4)C(=O)N(C4CCC(=O)NC4=O)C5=O)CC3)CC2)c1 (racemic)	519

Let's switch to this compound now.
[Q] Consider the compound Nc1nnc(-c2ccccc2O)cc1N1CC2CCC(C1)N2c1cccc(OCCN2CCN(CCOC3CCN(c4ccc5c(c4)C(=O)N(C4CCC(=O)NC4=O)C5=O)CC3)CC2)c1 (racemic) and give its measured DC50.
[A] 22

---

# ASSAY SYSTEM: SMARCA2 (Homo sapiens)
# Construct: endogenous in cells; host or cells: HT1080 (CRISPR HiBiT knock-in clone, generated in house)
# TEST: SMARCA2 HiBiT degradation assay (cellular)
# Format: cell-based
# CONDITION DESCRIPTION: A549, 6 h incubation; Emax = amount of residual protein remaining in the cell following compound treatment; table head names A549
MEASURED METRIC: Emax
Answers without a unit are incomplete; give the number and then its unit.

Consider the worked cases shown below.
COMPOUND	ASSAY SYSTEM	Emax
Nc1nnc(-c2ccccc2O)cc1N1CCC(C(=O)N2CC3(CCN(CC4CCN(c5ccc6c(c5)C(=O)N(C5CCC(=O)NC5=O)C6=O)CC4)C3)C2)(c2ccccc2)CC1 (stereo not shown)	SMARCA2 (Homo sapiens)	29%
Nc1nnc(-c2ccccc2O)cc1N1CC2CCC(C1)N2c1cccc(CC2CCN(C(=O)CCC3CCN(c4ccc5c(c4)C(=O)N(C4CCC(=O)NC4=O)C5=O)CC3)CC2)c1 (racemic)	SMARCA2 (Homo sapiens)	65%
Nc1nnc(-c2ccccc2O)cc1N1CCN(c2ccccc2)C(C(=O)NC2CCN(C(=O)CC3CCN(c4ccc5c(c4)C(=O)N(C4CCC(=O)NC4=O)C5=O)CC3)CC2)C1 (stereo not shown)	SMARCA2 (Homo sapiens)	46%
Nc1nnc(-c2ccccc2O)cc1N1CCC(CNC(=O)CC2CCN(c3ccc4c(c3)C(=O)N(C3CCC(=O)NC3=O)C4=O)CC2)(c2ccccc2)CC1 (stereo not shown)	SMARCA2 (Homo sapiens)	57%
Nc1nnc(-c2ccccc2O)cc1N1CC2CCC(C1)N2c1cccc(OCCN2CCN(CCCOC3CCN(c4ccc5c(c4)C(=O)N(C4CCC(=O)NC4=O)C5=O)CC3)CC2)c1 (racemic)	SMARCA2 (Homo sapiens)	27%
Nc1nnc(-c2ccccc2O)cc1OC1CCCN(c2ccc(N3CCN(C(=O)CCCCCCCCCCn4cc(CNc5cccc6c5C(=O)N(C5CCC(=O)NC5=O)C6=O)nn4)CC3)cc2)C1 (stereo not shown)	SMARCA2 (Homo sapiens)	50%
Nc1nnc(-c2ccccc2O)cc1N1CCC(C(=O)N2CC3(CCN(C(=O)CCC4CCN(c5ccc6c(c5)C(=O)N(C5CCC(=O)NC5=O)C6=O)CC4)C3)C2)(c2ccccc2)CC1 (stereo not shown)	SMARCA2 (Homo sapiens)	50%
CN(C(=O)C1CCN(Cc2cccc(N3C4CCC3CN(c3cc(-c5ccccc5O)nnc3N)C4)c2)CC1)C1CN(c2ccc3c(c2)C(=O)N(C2CCC(=O)NC2=O)C3=O)C1 (racemic)	SMARCA2 (Homo sapiens)	31%

[Q] // lookup Emax for Nc1nnc(-c2ccccc2O)cc1N1CCC(C(=O)N2CC3(CCN(C(=O)C4CCN(c5ccc6c(c5)C(=O)N(C5CCC(=O)NC5=O)C6=O)CC4)C3)C2)(c2ccccc2)CC1 (stereo not shown)
[A] 42%

[Q] Which Emax value belongs to Nc1nnc(-c2ccccc2O)cc1N1CCN(c2cccc(CN3CCN(C(=O)CCC4CCN(c5ccc6c(c5)C(=O)N(C5CCC(=O)NC5=O)C6=O)CC4)CC3)c2)C2(CC2)C1 (stereo not shown) ?
[A] 37%
